Entries and their CYP2C19 inhibition
target: UniProtKB P33261; assay: CYP inhibition screening, CYP2C19; format: in vitro ADME; conditions: 3 μM
Sequence (P33261 whole entry): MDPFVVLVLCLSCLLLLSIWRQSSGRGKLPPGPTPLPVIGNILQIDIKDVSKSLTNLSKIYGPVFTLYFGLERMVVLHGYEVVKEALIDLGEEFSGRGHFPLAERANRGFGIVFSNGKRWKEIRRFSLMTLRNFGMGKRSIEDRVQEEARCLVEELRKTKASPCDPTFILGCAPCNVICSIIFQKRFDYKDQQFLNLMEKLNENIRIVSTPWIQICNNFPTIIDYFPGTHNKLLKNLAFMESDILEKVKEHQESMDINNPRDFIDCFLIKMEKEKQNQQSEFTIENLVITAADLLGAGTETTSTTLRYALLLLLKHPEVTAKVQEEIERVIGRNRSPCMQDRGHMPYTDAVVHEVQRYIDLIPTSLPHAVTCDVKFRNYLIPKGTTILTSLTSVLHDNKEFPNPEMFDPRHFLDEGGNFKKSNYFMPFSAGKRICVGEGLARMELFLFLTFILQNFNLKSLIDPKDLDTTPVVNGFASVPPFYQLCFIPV
Endpoint Name: CYP2C19 inhibition (%)

Compound | Endpoint Name | Value
CCN(CC)c1ccc(CN2CCc3nc(C)[nH]c(=O)c3C2)c(OC)c1 [Compound 64] | CYP2C19 inhibition | 31.6
Cn1c(=O)[nH]c(=O)c2c1nc(S)n2CC(O)COc1ccc(Cl)cc1 (centres unmarked) [Compound 38] | CYP2C19 inhibition | −12.0
Nc1ccc(N2CCOCC2)c2nonc12 [Compound 11] | CYP2C19 inhibition | 4.4
Cc1cccc(NCc2ccc(O)c3ncccc23)c1C [Compound 12] | CYP2C19 inhibition | 13.4
COc1ccc(N2CCN(C(c3ccc(N(C)C)cc3)c3nnnn3C(C)(C)C)CC2)cc1 (centres unmarked) [Compound 31] | CYP2C19 inhibition | 37.7
